Overview of reported ALP across a group of substances:
# assay.explanation: Cynomolgus monkey tolerability, kidney and liver function markers (Example 34)
# measurement.parameters: cynomolgus monkeys, 35 mg/kg subcutaneously, day 44
Field format: number, assumed IU/L, no unit text.

In the examples that follow, each entry is paired with its recorded ALP.
{"substance": "1198728 (TATTAGAGTATGTGGC; modified gapmer, further chemistry not given here) [compound 1198728]", "outcome.measure": "ALP", "value": 1165}
{"substance": "1198605 (GTAATATTGCAATCTG; modified gapmer, further chemistry not given here) [compound 1198605]", "outcome.measure": "ALP", "value": 1445}
{"substance": "1198872 (TGTATGTCAGAAGAGT; chemically modified gapmer, further chemistry not given here) [compound 1198872]", "outcome.measure": "ALP", "value": 1098}

Enquiry: I am curious: what ALP value has been reported for 1198440 (AAGTGTATGTCAGAAG; cEt, 2'-MOE, 5-methylcytosine, phosphorothioate modifications, further chemistry not given here) [compound 1198440] ?
Return: 1412

====

# Test system: Yap1 mRNA
# assay.explanation: Dose-dependent inhibition of human Yap1 in A-431 cells (Example 7, 10,000 cells per well, RTS36584)
# Type: cell-based
# measurement.parameters: 15.6 nM, A-431 cells, 10,000 cells per well, free uptake, approximately 48 hours
Strand notation (5' to 3'): a small letter for the sugar, then the base; units joined by * are phosphorothioate-linked, units joined directly phosphodiester-linked; [ ] holds rarer units or linkages, { } end groups; capitals alone tell only the bases. k = constrained ethyl (cEt); [5mC] = 5-methylcytosine; d = 2'-deoxy (DNA)
Label label 1 when Yap1 mRNA, % UTC >= 90 % UTC; otherwise label 0.

Consider the worked cases shown below.
{"substance": "958505 (kG*kA*kT*dA*dA*dT*d[5mC]*dG*dA*dG*dA*dT*dT*kT*kA*kA; antisense) [compound 958505]", "target.system": "Yap1 mRNA", "answer.label": "label 0"}
{"substance": "958735 (kA*kG*k[5mC]*dA*dA*dT*d[5mC]*dT*dT*dG*dT*dG*dG*kA*kT*k[5mC]; antisense) [compound 958735]", "target.system": "Yap1 mRNA", "answer.label": "label 1"}
{"substance": "958549 (kT*kG*kT*dA*dG*dA*d[5mC]*dA*d[5mC]*dA*dT*dA*d[5mC]*kT*k[5mC]*kT; antisense) [compound 958549]", "target.system": "Yap1 mRNA", "answer.label": "label 1"}
{"substance": "716454 (antisense k[5mC]*kG*kA*dG*dA*dT*dT*dT*dA*dA*dA*dT*dA*kA*kG*kG) [compound 716454]", "target.system": "Yap1 mRNA", "answer.label": "label 0"}

Enquiry: Confirm if Yap1 mRNA, % UTC reported for the substance 958590 (kA*kG*kG*dT*dA*dT*dA*dA*d[5mC]*dT*dG*dG*dG*k[5mC]*kA*kA) [compound 958590] is 90 % UTC or above.
Return: label 0

Enquiry: Another: 958565 (kT*kT*kG*dA*dG*d[5mC]*dA*d[5mC]*dT*dG*dA*dA*dA*kG*kT*kA; antisense) [compound 958565]
Return: label 0

====

# Test system: Yap1 mRNA
# assay.explanation: Dose-dependent inhibition of human Yap1 in SNU-449 cells (Example 9, RTS36584)
# Format: cell-based
# measurement.parameters: 2000.00 nM, free uptake, approximately 48 hours
Strand notation (5' to 3'): a small letter for the sugar, then the base; units joined by * are phosphorothioate-linked, units joined directly phosphodiester-linked; [ ] holds rarer units or linkages, { } end groups; capitals alone tell only the bases. e = 2'-O-(2-methoxyethyl) (MOE); k = constrained ethyl (cEt); [5mC] = 5-methylcytosine; d = 2'-deoxy (DNA)
outcome.measure: % UTC (Yap1 mRNA)
# include the unit after the value

{"substance": "1198365 (k[5mC]*kT*kA*dA*dG*dT*dA*dA*dG*dG*dT*dT*kT*e[5mC]*k[5mC]*e[5mC]; antisense) [compound 1198365]", "value": "5 % UTC"}

Enquiry: Sample 1198285 (kA*kT*kT*dG*dT*d[5mC]*dT*d[5mC]*dA*dT*dG*d[5mC]*k[5mC]*eT*kT*eA; antisense) [compound 1198285] — what was its % UTC (Yap1 mRNA)?
Return: 5 % UTC

Enquiry: Can you check 1198510 (k[5mC]*kT*d[5mC]*dT*dT*dA*dT*dA*dT*dG*dG*eT*kT*eT*kT*eG; antisense) [compound 1198510] next?
Return: 6 % UTC
